target: HBO-KAT7 (Homo sapiens)
Sequence (O95251 with tags, fused parts or gaps): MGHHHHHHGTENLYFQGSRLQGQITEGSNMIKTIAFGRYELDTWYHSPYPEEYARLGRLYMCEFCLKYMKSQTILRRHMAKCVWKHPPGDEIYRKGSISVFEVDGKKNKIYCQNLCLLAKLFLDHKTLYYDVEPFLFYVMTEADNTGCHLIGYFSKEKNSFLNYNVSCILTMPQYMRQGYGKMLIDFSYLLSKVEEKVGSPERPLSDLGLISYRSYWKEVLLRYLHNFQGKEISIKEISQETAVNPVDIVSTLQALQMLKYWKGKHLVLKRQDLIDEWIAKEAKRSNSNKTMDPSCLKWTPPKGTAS
pIC50: −log10 of the molar value.
Tag: 1 if measured pIC50 is not below 5, 0 if it is.

Consider the worked cases shown below.
substance.smiles	label.value
COc1cc(-c2cc(OC)c3c(NS(=O)(=O)c4c(OC)cccc4OC)noc3c2)ccn1	1
COc1cccc2onc(NS(=O)(=O)c3cccc4cc(C)cnc34)c12	1
CCc1ccc(OC)c(S(=O)(=O)Nc2noc3ccc(OC)cc23)c1	1
CCc1ccc(OC)c(S(=O)(=O)Nc2noc3ccc(C4CC4)c(OC)c23)c1	1
CCc1ccc(OC)c(S(=O)(=O)Nc2noc3ccc(C)c(Cl)c23)c1	1

Query block: Determine whether measured pIC50 meets or exceeds 5 for "COc1cccc(OCC(N)=O)c1S(=O)(=O)Nc1noc2cccc(OC)c12"
Result block: 0

Query block: Determine whether measured pIC50 meets or exceeds 5 for "CCOc1ccc2onc(NS(=O)(=O)c3cc(CC)ccc3OC)c2c1"
Result block: 1

Query block: Determine whether measured pIC50 meets or exceeds 5 for "COc1ccc(C(C)(C)C)cc1S(=O)(=O)Nc1noc2cccc(Cl)c12"
Result block: 0

Query block: Determine whether measured pIC50 meets or exceeds 5 for "O=S(=O)(Nc1noc2cccc(Cl)c12)c1ccccc1OC(F)F"
Result block: 1

Query block: Determine whether measured pIC50 meets or exceeds 5 for "CCc1ccc(OC)c(S(=O)(=O)Nc2noc3c(C(=O)N(C)C)cccc23)c1"
Result block: 0

Query block: Determine whether measured pIC50 meets or exceeds 5 for "COCc1cc(OC)c2c(NS(=O)(=O)c3c(OC)cccc3OC)noc2c1Cl"
Result block: 1

Query block: Determine whether measured pIC50 meets or exceeds 5 for "CC(C)Oc1ccc(S(=O)(=O)Nc2noc3cccc(Cl)c23)cc1"
Result block: 0

Query block: Determine whether measured pIC50 meets or exceeds 5 for "COc1ccc(C(C)(C)C)cc1S(=O)(=O)Nc1noc2ccccc12"
Result block: 0

Query block: Determine whether measured pIC50 meets or exceeds 5 for "O=S(=O)(Nc1noc2cccc(Cl)c12)c1ccccc1"
Result block: 0
